biological target: L. monocytogenes AgrC (Listeria monocytogenes serovar 1/2a, UniProt Q8YAR5); test: Fluorescence (agr-GFP) reporter agonism assay, ΔagrD reporter strain; type: cell-based; conditions: agonism, relative to native AIP
Sequence (Q8YAR5 entry or part of it): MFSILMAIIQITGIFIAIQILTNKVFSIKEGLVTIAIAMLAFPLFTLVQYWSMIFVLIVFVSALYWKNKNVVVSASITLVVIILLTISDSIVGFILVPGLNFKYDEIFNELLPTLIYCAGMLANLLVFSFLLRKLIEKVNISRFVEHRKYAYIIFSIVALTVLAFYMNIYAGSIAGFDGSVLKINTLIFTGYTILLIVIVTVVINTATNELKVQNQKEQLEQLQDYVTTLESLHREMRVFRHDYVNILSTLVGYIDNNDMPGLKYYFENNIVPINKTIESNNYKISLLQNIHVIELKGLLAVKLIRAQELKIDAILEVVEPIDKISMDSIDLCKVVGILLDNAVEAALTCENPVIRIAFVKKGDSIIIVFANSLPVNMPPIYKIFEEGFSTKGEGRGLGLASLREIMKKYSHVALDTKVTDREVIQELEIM
Where a SMILES comes first, the peptide text is derived from it. Bridges are numbered along the chain shown (N, C = ends). [ ]: non-standard residue; d: D form. Dap = NC[C@H](N)C(=O)O
Reported Endpoint: loss in potency

query: Record CSCC[C@@H]1NC(=O)[C@H](Cc2ccccc2)NC(=O)[C@@H](NC(=O)[C@H](C)N)CNC(=O)[C@H](C(C)C)NC(=O)[C@H](Cc2ccccc2)NC1=O [AIP C2Dap, A-(Dap-F-M-F-V)] (H-A[Dap]FMFV; lactam 2-C; N-terminus assumed) : what is its loss in potency with L. monocytogenes AgrC (Listeria monocytogenes serovar 1/2a, UniProt Q8YAR5)?
result: 10 fold

* * *

Property: Emax; scope: individual compounds
target: L. monocytogenes AgrC (Listeria monocytogenes serovar 1/2a); experiment: Fluorescence (agr-GFP) reporter agonism assay, ΔagrD reporter strain; type: cell-based; conditions: read-out: Max Activation
Where a SMILES comes first, the peptide text is derived from it. Bridges are numbered along the chain shown (N, C = ends).
// note: answer is a bare numeric in %

Reference set, count: 3
CC(C)C[C@@H]1NC(=O)[C@H](Cc2ccc(O)cc2)NC(=O)[C@H](CO)NC(=O)[C@H](C)NC(=O)[C@@H](NC(=O)[C@@H]2CCCN2C(=O)[C@H](CC(N)=O)NC(=O)[C@H](Cc2ccc(O)cc2)NC(=O)[C@H](CCCCN)NC(=O)[C@H](C)NC(=O)[C@H](C)NC(=O)[C@@H](N)CC(N)=O)CSC1=O [Se AIP-III, N-A-A-K-Y-N-P-(C-A-S-Y-L), reference compound] (H-NAAKYNPCASYL; thioester 8-C): 8.73
CC(C)[C@H](NC(=O)[C@H](CO)NC(=O)[C@H](C)N)C(=O)N[C@H]1CSC(=O)[C@H](Cc2ccccc2)NC(=O)[C@H](Cc2ccc(O)cc2)NC(=O)[C@H](C)NC(=O)[C@H](C)NC1=O [Se AIP-I D1AS6A, A-S-V-(C-A-A-Y-F), reference compound] (H-ASVCAAYF; thioester 4-C): 12.4
CC[C@H](C)[C@H](N)C(=O)N[C@@H](CC(N)=O)C(=O)N[C@H]1CSC(=O)[C@H](CC(C)C)NC(=O)[C@H](CC(C)C)NC(=O)[C@H](Cc2ccccc2)NC(=O)[C@H](CC(=O)O)NC1=O [Sa AIP-III, I-N-(C-D-F-L-L), reference compound] (H-INCDFLL; thioester 3-C): 11.3

query: For the compound CSCC[C@H](NC(=O)[C@H](CO)NC(=O)[C@H](CO)NC(=O)[C@H](CC(=O)O)NC(=O)[C@H](C)N)C(=O)N[C@@H](CO)C(=O)N[C@@H](CCCCN)C(=O)N[C@@H](C)C(=O)N[C@H]1CSC(=O)[C@H](C(C)C)NC(=O)[C@H](Cc2ccccc2)NC(=O)[C@H](CCSC)NC(=O)[C@H](Cc2ccccc2)NC1=O [Compound 13-mer, A-D-S-S-M-S-K-A-(C-F-M-F-V)] (H-ADSSMSKACFMFV; thioester 9-C; N-terminus assumed) , what Emax is on record?
result: 108

query: For the compound CSCC[C@@H]1NC(=O)[C@H](Cc2ccccc2)NC(=O)[C@@H](NC(=O)[C@H](C)N)CSC(=O)[C@H](C(C)C)NC(=O)[C@H](Cc2ccccc2)NC1=O [AIP, A-(C-F-M-F-V), reference compound] (H-ACFMFV; thioester 2-C; N-terminus assumed) , what Emax is on record?
result: 114

query: For the compound C[C@H](N)C(=O)N[C@@H](CO)C(=O)N[C@@H](C)C(=O)N[C@H]1CSC(=O)[C@H](Cc2ccccc2)NC(=O)[C@H](Cc2ccc(O)cc2)NC(=O)[C@H](C)NC(=O)[C@H](C)NC1=O [Se AIP-I D1AV3AS6A, A-S-A-(C-A-A-Y-F), reference compound] (H-ASACAAYF; thioester 4-C) , what Emax is on record?
result: 12.1
